The reported measurements were obtained from patent US20140309265A1.

target: N-His-Tb-BIR3(241-356, XIAP) (Homo sapiens, UniProt P98170); assay: XIAP-BIR3 SMAC Peptide Fluorescence Polarization Assay (FPA); format: binding
Sequence (P98170 241-356): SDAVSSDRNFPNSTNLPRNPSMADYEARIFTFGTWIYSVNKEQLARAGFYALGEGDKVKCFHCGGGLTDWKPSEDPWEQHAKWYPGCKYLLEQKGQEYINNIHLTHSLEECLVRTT
pIC50: −log10 of the molar value.
Field: pIC50. Provide a value for each of the compounds that follow.

q: Given the entry CN[C@@H](C)C(=O)N[C@H](C(=O)N1C[C@@H]2C[C@H]1C(=O)N[C@@H](Cc1ccc3ccccc3c1)C(=O)N[C@H](C(=O)O)Cc1ccc(cc1)OCc1cn(nn1)[C@H]1C[C@@H](C(=O)N[C@@H](Cc3ccc4ccccc4c3)C(=O)N[C@H](C(=O)O)Cc3ccc(cc3)OCc3cn2nn3)N(C(=O)[C@@H](NC(=O)[C@H](C)NC)C(C)C)C1)C(C)C , report its measured pIC50.
a: > 7.30

q: Bench note: what pIC50 did CN[C@@H](C)C(=O)N[C@H](C(=O)N1C[C@@H]2C[C@H]1C(=O)N[C@@H](Cc1ccc3ccccc3c1)C(=O)N[C@H](C(=O)NS(C)(=O)=O)Cc1ccc(cc1)OCc1cn(nn1)[C@H]1C[C@@H](C(=O)N[C@@H](Cc3ccc4ccccc4c3)C(=O)N[C@H](C(=O)NS(C)(=O)=O)Cc3ccc(cc3)OCc3cn2nn3)N(C(=O)[C@@H](NC(=O)[C@H](C)NC)C(C)(C)C)C1)C(C)(C)C show?
a: 7.00 to 7.30
